# maps each entry to its IC50
Biological target: truncated human 11β-HSD-1 enzyme (24-287AA) (Homo sapiens)
Construct: truncated human 11β-HSD-1 enzyme (24-287AA)
Sequence (P28845 24-287): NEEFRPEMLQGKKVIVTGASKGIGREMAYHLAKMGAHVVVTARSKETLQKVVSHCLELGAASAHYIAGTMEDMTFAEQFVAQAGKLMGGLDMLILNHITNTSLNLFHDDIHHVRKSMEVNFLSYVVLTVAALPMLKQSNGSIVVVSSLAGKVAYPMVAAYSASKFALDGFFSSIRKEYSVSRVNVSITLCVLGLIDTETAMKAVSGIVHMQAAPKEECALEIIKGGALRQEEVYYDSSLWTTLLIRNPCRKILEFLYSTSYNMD
Test: human 11β-HSD-1 enzymatic Scintillation Proximity Assay (SPA)
Settings: E. coli lysate with enzyme, 30 min, room temperature
Procedure: The reaction was stopped by adding a non-specific 11β-HSD inhibitor, 18β-glycyrrhetinic acid. The tritiated cortisol was captured by a mixture of an anti-cortisol monoclonal antibody and SPA beads coated with anti-mouse antibodies. The reaction plate was shaken at room temperature and the radioactivity bound to SPA beads was then measured on a β-scintillation counter. […] After shaking for 30 minutes, plates were read on a liquid scintillation counter Topcount. […]
Observation type: IC50 (nM)

CC(C)(Oc1ccc(-n2cccn2)cn1)C(=O)N[C@@H]1[C@@H]2C[C@@H]3C[C@H]1C[C@@](C(N)=O)(C3)C2: 30
NC(=O)C12CC3CC(C1)C(NC(=O)C1(Oc4ccc(Cl)cc4)CCC1)C(C3)C2 (centres unmarked): 89
CC(C)(Oc1ccc(Cl)cc1)C(=O)NC1C2CC3CC1CC(/C=C/C(=O)O)(C3)C2 (centres unmarked): 30
C[S+]([O-])[C@]12C[C@@H]3C[C@H](C1)[C@@H](NC(=O)C(C)(C)Oc1ccc(F)cc1Cl)[C@@H](C3)C2 (some centres unmarked): 28
CC(C)(Oc1ccc(O)cc1)C(=O)N[C@@H]1[C@@H]2C[C@@H]3C[C@H]1C[C@@](C(N)=O)(C3)C2: 18
CC(C)(Oc1ccc(F)cc1Cl)C(=O)N[C@@H]1[C@@H]2C[C@@H]3C[C@H]1C[C@@](S(N)(=O)=O)(C3)C2: 89
CCN(CC)S(=O)(=O)c1cc(Cl)ccc1OC(C)(C)C(=O)NC1C2CC3CC1CC(C(N)=O)(C3)C2 (centres unmarked): 68
CC(C)(Oc1ccc(Cl)cc1)C(=O)NC1C2CC3CC1CC(Cc1nn[nH]n1)(C3)C2 (centres unmarked): 41
